subject-of-test: the molecule itself
experimental-details: thioflavin T fluorescence

| protein | binding result |
| --- | --- |
| EmN variant P183T (domain or fragment, human, UniProt P50402 1-187, looked up) MDNYADLSDTELTTLLRRYNIPHGPVVGSTRRLYEKKIFEYETQRRRLSPPSSSAASSYSFSDLNSTRGDADMYDLPKKEDALLYQSKGYNDDYYEESYFTTRTYGEPESAGPSRAVRQSVTSFPDADAFHHQVHDDDLLSSSEEECKDRERPMYGRDSAYQSITHYRPVSASRSSLDLSYYTTSSS | binds |
| EmN variant P183H (domain or fragment, human, UniProt P50402 1-187, looked up) MDNYADLSDTELTTLLRRYNIPHGPVVGSTRRLYEKKIFEYETQRRRLSPPSSSAASSYSFSDLNSTRGDADMYDLPKKEDALLYQSKGYNDDYYEESYFTTRTYGEPESAGPSRAVRQSVTSFPDADAFHHQVHDDDLLSSSEEECKDRERPMYGRDSAYQSITHYRPVSASRSSLDLSYYHTSSS | binds |
| EmN variant Q133H (domain or fragment, human, UniProt P50402 1-187, looked up) MDNYADLSDTELTTLLRRYNIPHGPVVGSTRRLYEKKIFEYETQRRRLSPPSSSAASSYSFSDLNSTRGDADMYDLPKKEDALLYQSKGYNDDYYEESYFTTRTYGEPESAGPSRAVRQSVTSFPDADAFHHHVHDDDLLSSSEEECKDRERPMYGRDSAYQSITHYRPVSASRSSLDLSYYPTSSS | binds |
